I'd be grateful if you could share measured melting point for these entries.
Where a name gives a salt, the structure may show the parent alone.

Record Cc1cn2cc(-c3cc4ccc(NC5CNC5)cc4oc3=O)nc2c(C)n1 . Reported melting point: 250 to 256 °C

Record CCc1ccn2cc(-c3cc4ccc(N5C[C@@H](C)N[C@@H](C)C5)cc4oc3=O)nc2c1 . Reported melting point: 183 to 188 °C

Record Cc1cc2cc(-c3cc4ccc(N5CCN[C@@H](C)C5)cc4oc3=O)oc2c(C)n1 . Reported melting point: 253 to 257 °C

Record CC(=O)O.CC(=O)O.COc1nc(C)cn2cc(-c3cc4ccc(N5CCN(C)[C@H](C)C5)cc4oc3=O)nc12 . Reported melting point: 227 to 229 °C

Record Cc1ccn2cc(-c3cc4ccc(O[C@@H]5CCNC5)cc4oc3=O)nc2c1 (as salt: hydrochloride) . Reported melting point: 271 to 275 °C

Record CCOc1cccc(-c2cc3ccc(N4CCN(C)CC4)cc3oc2=O)n1 . Reported melting point: 170 to 172 °C

Record Cc1cn2cc(-c3cc4ccc(N5CCN6C[C@H](O)C[C@H]6C5)cc4oc3=O)nc2c(C)n1 . Reported melting point: 285 to 287 °C

Record O=c1oc2cc(CNC(CO)CO)ccc2cc1-c1nc2ccccc2s1 . Reported melting point: 194 to 197 °C

###

Assay Readout: melting point

Record C[C@@H]1CN(c2ccc3cc(-c4cn5ccc(Cl)cc5n4)c(=O)oc3c2)C[C@H](C)N1 . Reported melting point: 223 to 231 °C

Record O=c1oc2cc(N3CCNCC3)cc(F)c2cc1-c1cn2cccnc2n1 . Reported melting point: 298 to 302 °C

Record Cc1cn2cc(-c3cc4ccc(CCCN(C)C)cc4oc3=O)nc2c(C)n1 . Reported melting point: 194 to 196 °C

Record O=c1oc2cc(N3CCNCC3)cc(F)c2cc1-c1nc2c(C(F)(F)F)cccc2o1 . Reported melting point: 249 to 253 °C

Record Cc1nccn2cc(-c3cc4ccc(N5CCCNCC5)cc4oc3=O)cc12 . Reported melting point: 210 to 213 °C

Record COc1cc(-c2cc3ccc(N4CCNCC4)cc3oc2=O)ccc1F . Reported melting point: 153 to 155 °C

Record Cc1cn2cc(-c3cc4ccc(N5CC(N(C)C)C5)cc4oc3=O)nc2c(C)n1 . Reported melting point: 246 to 250 °C

Record CCN1CC[C@@H](Oc2ccc3cc(-c4nc5ccccc5s4)c(=O)oc3c2)C1 . Reported melting point: 195 to 198 °C

Record Cc1cn2cc(-c3cc4ccc(CN5CCNCC5)cc4oc3=O)nc2c(C)n1 . Reported melting point: 189 to 195 °C

Record O=c1oc2cc(N3CCNCC3)ccc2cc1Nc1cccnc1 . Reported melting point: 172 to 175 °C

Record CCc1cc(C)cn2cc(-c3cc4ccc(N5CCN(C)CC5)cc4oc3=O)nc12 . Reported melting point: 203 to 210 °C

Record Cc1ccc2nc(-c3cc4ccc(N5CCCC(N(C)C)C5)cc4oc3=O)cn2c1 (stereo not drawn) . Reported melting point: 167 to 169 °C

Record Cc1cc2cc(-c3cc4ccc(N5CCN[C@H](C)C5)cc4oc3=O)oc2c(C)n1 . Reported melting point: 251 to 256 °C

Record Cc1cn2cc(-c3cc4ccc(C5CCN(C(C)C)CC5)cc4oc3=O)nc2c(C)n1 . Reported melting point: 206 to 211 °C

Record C[C@@H]1CN(c2ccc3cc(-c4nc5ccccc5s4)c(=O)oc3c2)C[C@H](C)N1 . Reported melting point: 248 to 252 °C

Record Cc1cn2cc(-c3cc4ccc(CCCNCc5ccncc5)cc4oc3=O)nc2c(C)n1 . Reported melting point: 155 to 159 °C

Record O=c1oc2cc(N3CCNCC3)ccc2cc1-c1cccs1 . Reported melting point: 193 to 195 °C

Record Cc1cn2cc(-c3cc4ccc(N5CCCN(C)CC5)cc4oc3=O)cnc2n1 . Reported melting point: 286 to 289 °C
